Test system: phosphorylation of Serine 473 in Akt in MDA-MB-468 cells
Assay: In Vitro phospho-Ser473 Akt Assay (Acumen Explorer)
Format: cell-based
Settings: Homo sapiens, MDA-MB-468, read-out: IC50 (phospho-Ser473 Akt assay)
value.type: IC50 (µM)
Supply the numeric figure in µM, leaving out any unit text.

Report IC50, nothing else, for this molecule: C[C@@H]1CN(c2nc(N3CCOC[C@@H]3C)c3ccc(-c4ccsc4)nc3n2)C[C@H](C)O1 [Example 11k]
0.083

---

Molecular target: mTOR (Homo sapiens)
Construct: mTOR protein was isolated from HeLa cell cytoplasmic extract by immunoprecipitation; endogenous in cells; host or cells: HeLa cell cytoplasmic extract (immunoprecipitate)
Assay: Biological Assay: mTOR enzyme activity, mTOR immunoprecipitated from HeLa cell cytoplasmic extract, recombinant PHAS-1 as substrate
Assay type: biochemical
Conditions: Biological Assay, upper bounds; read-out: IC50 values against mTOR
pIC50: −log10 of the molar value.
value.type: pIC50

Recorded results for 5 compounds are shown here.
INSERT INTO measurements (structure, value_type, test_result) VALUES
  ('Cc1cccc(-c2ccc3c(N4CCOCC4)nc(N4C[C@@H](C)O[C@@H](C)C4)nc3n2)c1', 'pIC50', '> 6.00'),
  ('COc1ccc(-c2ccc3c(N4CCOCC4)nc(N4C[C@@H](C)O[C@@H](C)C4)nc3n2)cc1CNc1ccc(OCc2ccccc2)cc1', 'pIC50', '> 6.00'),
  ('CC(C)c1cccc(Nc2ccc3c(N4CCOCC4)nc(N4C[C@@H](C)O[C@@H](C)C4)nc3n2)c1', 'pIC50', '> 6.00'),
  ('CNCc1cc(-c2ccc3c(N4CCOCC4)nc(N4C[C@@H](C)O[C@@H](C)C4)nc3n2)ccc1OC', 'pIC50', '> 7.00'),
  ('COc1ccc(-c2ccc3c(N4CCOCC4)nc(N4C[C@@H](C)O[C@@H](C)C4)nc3n2)cc1CNC(=S)N1CCCCC1', 'pIC50', '> 6.00');

Enter measured pIC50, system mTOR (Homo sapiens), for the compound shown: C[C@@H]1CN(c2nc(N3CCOCC3)c3ccc(Nc4nc5cncnc5[nH]4)nc3n2)C[C@H](C)O1
> 5.00

Enter measured pIC50, system mTOR (Homo sapiens), for the compound shown: C[C@@H]1CN(c2nc(N3CCOCC3)c3ccc(N(C)C)nc3n2)C[C@H](C)O1
> 5.00

Enter measured pIC50, system mTOR (Homo sapiens), for the compound shown: COc1ccc(-c2ccc3c(N4CCOCC4)nc(N4C[C@@H](C)O[C@@H](C)C4)nc3n2)cc1
> 7.00

Enter measured pIC50, system mTOR (Homo sapiens), for the compound shown: C[C@@H]1CN(c2nc(N3CCOCC3)c3ccc(Nc4ccnc(-c5cccnc5)n4)nc3n2)C[C@H](C)O1
> 6.00

Enter measured pIC50, system mTOR (Homo sapiens), for the compound shown: C[C@@H]1CN(c2nc(N3CCOCC3)c3ccc(Nc4cccc5cccnc45)nc3n2)C[C@H](C)O1
> 5.00

Enter measured pIC50, system mTOR (Homo sapiens), for the compound shown: C[C@H]1CCCCN1c1nc(N2CCOCC2)c2ccc(-c3ccc(Cl)cc3)nc2n1
> 7.00
